test-target: human GLP1R (hGLP1R) (Homo sapiens)
assay-summary: Human GLP1R cAMP agonist assay (GloSensor cAMP Assay)
Assay type: cell-based
condition-notes: intracellular cAMP, HEK293-SNAP-hGLP1R-GloSensor cells, 12 min at rt
Provide the reported EC50 of each item.
Lab book: enter the figure in nM, no units written.

For the molecule `Cc1nc(CN2CCC(c3cccc4c3O[C@@](C)(c3ccc(Cl)cc3F)O4)CC2)n(C[C@H]2CCO2)c1-c1ncc(C(=O)O)o1` , give its measured EC50 value. 0.149

For the molecule `CCc1nc(CN2CCC(c3cccc4c3O[C@@](C)(c3ccc(Cl)cc3F)O4)CC2)n(C[C@@H]2CCO2)c1-c1ncc(C(=O)O)o1` , give its measured EC50 value. 0.464

For the molecule `CCc1nc(CN2CCC(c3cccc4c3O[C@@](C)(c3ccc(Cl)cc3F)O4)CC2)n(C[C@H]2CCO2)c1-c1ncc(C(=O)O)o1` , give its measured EC50 value. 0.353

----------
test-target: human GLP1R (hGLP1R) (Homo sapiens, UniProt P43220)
Sequence (P43220 24-463): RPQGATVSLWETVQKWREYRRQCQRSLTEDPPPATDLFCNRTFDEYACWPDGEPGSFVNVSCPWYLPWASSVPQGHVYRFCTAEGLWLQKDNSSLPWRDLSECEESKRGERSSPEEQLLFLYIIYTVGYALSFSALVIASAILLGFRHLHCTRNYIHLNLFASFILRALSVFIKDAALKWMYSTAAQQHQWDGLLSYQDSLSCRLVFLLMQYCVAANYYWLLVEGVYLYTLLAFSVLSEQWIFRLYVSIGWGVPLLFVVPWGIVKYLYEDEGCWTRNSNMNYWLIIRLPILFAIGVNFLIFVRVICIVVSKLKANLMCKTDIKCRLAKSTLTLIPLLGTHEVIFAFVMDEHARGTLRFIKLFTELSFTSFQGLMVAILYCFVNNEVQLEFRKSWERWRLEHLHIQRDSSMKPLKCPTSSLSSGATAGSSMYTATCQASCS
assay-summary: Human GLP1R β-arrestin recruitment assay (PathHunter)
Format: cell-based
Parameters: insert synthesized by GeneArt 93-0164 (CHO-K1-EA parental cells); 93-0491 (pCMV PK vector bundle)
condition-notes: relative to GLP1(7-36); CHO-hGLP1R-β-arrestin cells; read-out: Beta-Arrestin assay Emax (%)
observation-type: Emax (%)
Lab book: enter the figure in %, no units written.

For the compound Cc1c(-c2nc(C(=O)O)co2)nc(CN2CCC(c3cccc4c3O[C@@](C)(c3ccc(Cl)cc3F)O4)CC2)n1C[C@@H]1CCO1 [Compound C-13] , give its measured Emax value. 12

For the compound Cc1nc(CN2CCC(c3cccc4c3O[C@@](C)(c3ccc(Cl)cc3F)O4)CC2)n(C[C@@H]2CCO2)c1-c1coc(C(=O)O)n1 [Compound C-20] , give its measured Emax value. 0

For the compound CCc1nc(CN2CCC(c3cccc4c3O[C@@](C)(c3ccc(Cl)cc3F)O4)CC2)n(C[C@H]2CCO2)c1-c1nc(C(=O)O)co1 [Compound C-7] , give its measured Emax value. 5
